Test system: HepG2 cells
assay procedure: HepG2 cell toxicity assay (Alamar Blue, 48 h)
Format: cell-based, human
assay context: human
For each of the compounds below, state its [TC50] HepG2 assay.
The answer is to be given in µM; state only the numeric part.

-- ask Determine from records and report [TC50] HepG2 assay for O=C(Cn1ccnc1[N+](=O)[O-])NCc1ccccc1 [BNZ, benznidazole, reference compound]
-- reply 490.90

-- ask Report [TC50] HepG2 assay for Clc1ccc(CNc2ncnc3c2nc(-c2ccccc2)n3Cc2ccc(Cl)cc2)cc1
-- reply 164.80

-- ask Please supply the value of reported [TC50] HepG2 assay for the item c1ccc(CCNc2ncnc3c2nc(-c2ccccc2)n3CCc2ccccc2)cc1
-- reply 53.96

-- ask # return recorded [TC50] HepG2 assay for input Cc1nc2c(NCc3ccccc3Cl)ncnc2n1Cc1ccccc1Cl
-- reply 372.20

-- ask Output measured [TC50] HepG2 assay for this item: Clc1cccc(CNc2ncnc3c2ncn3Cc2cccc(Cl)c2)c1
-- reply 35.21

-- ask Please give the documented [TC50] HepG2 assay of Cc1nc2c(NCc3cccc(Cl)c3)ncnc2n1Cc1cccc(Cl)c1
-- reply 17.77

-- ask Indicate the recorded [TC50] HepG2 assay value for this compound: Brc1ccc(CCNc2ncnc3c2nc(-c2ccccc2)n3CCc2ccc(Br)cc2)cc1
-- reply 550.60
